Taken from paper PMC9482650.

# target or system: T1, GRIP1_5, Q9Y3R0
# T1 sequence (Q9Y3R0 568-668, limits assumed, looked up): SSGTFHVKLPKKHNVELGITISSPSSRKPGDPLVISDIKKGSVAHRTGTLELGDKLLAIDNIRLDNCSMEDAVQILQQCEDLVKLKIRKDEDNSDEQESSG
# assay notes: holdup assay
# Design: key: below the threshold = too weak to quantify, mostly under pKd 3.1 to 4
# run conditions: plain residues with an end cap or a label only (N-terminal biotin on a linker: ttds)
measured attribute: pKd

In [3]: df
Out[3]:
                          binder            obs_value
0    TVASEKESVM [SLC1A5, Q15758]                 3.55
1     STLTIFETAL [ABCC4, O15439]  below the threshold
2  IDNDTESTAL [ARHGAP17, Q68EM7]  below the threshold
3   PKTPPTDTSV [KIR3DL3, Q8N743]  below the threshold
4  SRPQRTQTQV [HPV67-E6, A4U7F2]  below the threshold
5      ERKLSSESQV [LRP4, O75096]  below the threshold
6  SSRTRRETQL [HPV16-E6, P03126]  below the threshold
7   SVWLRKETRV [CYSLTR2, Q9NS75]  below the threshold
8    VLRLQSETSV [VANGL1, Q8TAA9]  below the threshold
9    IYVPEAQTRL [DLGAP4, Q9Y2H0]  below the threshold

Input: Endpoint output: pKd of QSARYRDTEL [TJP2, Q9UDY2] . Value?
Output: below the threshold

Input: Reported pKd for RSLEEEESQL [GRASP, Q7Z6J2] : what is it?
Output: 3.87

Input: Give its pKd value. Item: GQDSREETQL [KCNT2, Q6UVM3]
Output: below the threshold
